system: LOX IMVI melanoma; assay: NCI-60 one-dose screen, 48 h (100 = growth as untreated, 0 = no growth, -100 = all killed); conditions: 10 µM unless noted
This is part of a sample that, as a whole, favours compounds with a hit. Of some 83,000 tested, about 20% had one in any assay.
Using growth as the sorting value, the categories are lo = under 30%, mid = from 30% up to 90%, hi = 90% and over

Examples from the recorded data:
C[C@@H]1C(=O)N(C[C@H](Cc2ccccc2)NC(=O)OCc2ccccc2)[C@]1(Cc1ccccc1)C(=O)OC(C)(C)C    mid
Cc1nc(Nc2ccccn2)sc1C(=O)/C=C/c1ccc(Br)cc1    mid
Cc1nc2ccc(C(=O)NCc3cc(C(=O)O)c(C)o3)cc2nc1C    hi
COc1ccc(-n2nnc(C(=O)NCCc3c[nH]c4ccc(F)cc34)c2C)cc1    hi
CCOC(=O)N1CCc2c(sc3c2C(=O)N[C@H](c2ccc(OC)cc2)N3)C1    hi
O=C(NCOC(O)C(Cl)(Cl)Cl)NCOC(O)C(Cl)(Cl)Cl (stereo not given)    hi

Returns: class label. Input: COc1cc2c(cc1OC)-c1ccc3cc4c(cc3c1N(CCCn1ccnc1)C2)OCO4
lo

Returns: class label. Input: COc1ccc(C2CC(c3ccc4ccccc4c3)=NN2c2nc(O)c(C3=c4cc(Cl)ccc4=NC3=O)s2)cc1 (stereo not given)
lo

Returns: class label. Input: Cc1c(Cl)cccc1NS(=O)(=O)c1ccccc1
hi
